- System: ACHN
- assay summary: NCI tumour cell line growth inhibition, 48 h
The source made the active and inactive calls. No stated cut-off is given here; in the data, active = GI50 up to about 1.1 µM and inactive = higher.
quantity: GI50

### Prompt Which GI50 reading was recorded for the compound CC1(C)O[C@@H](CP(c2ccccc2)c2ccccc2)[C@H](CP(c2ccccc2)c2ccccc2)O1 ?
### Response 15.2 µM (inactive)

### Prompt Consider the compound shown here: O=C(NCCc1ccccc1)c1cc(/C=C/c2cc(O)ccc2O)ccc1O What is its recorded GI50?
### Response 2.2 µM (inactive)

### Prompt Fill in: GI50 of O=S(=O)(O)c1cc(/N=N/c2cc(S(=O)(=O)O)c3cccnc3c2O)ccc1/C=C/c1ccc(/N=N/c2cc(S(=O)(=O)O)c3cccnc3c2O)cc1S(=O)(=O)O is ___
### Response > 100 µM (inactive)

### Prompt Reported GI50 for CC12CCC(=O)C=C1CCC1C2C(O)CC2(C)C(c3csc(N)n3)CCC12.O=S(=O)(O)c1ccc(Br)cc1 (stereo not drawn) : what is it?
### Response > 100 µM (inactive)

### Prompt Give the measured GI50 of COc1c(OC(C)=O)cc2c(OC(C)=O)c1CC(C)CC(OC)C(O)C(C)/C=C(\C)C(OC(N)=O)C(OC)/C=C\C=C(/C)C(=O)N2 (stereo not drawn) .
### Response > 100 µM (inactive)

### Prompt Entry under review: O=C(Nc1ccccc1-c1nn(CO)c(=S)n(CO)c1=O)C(F)(F)F . Reported GI50?
### Response > 100 µM (inactive)

### Prompt For Cc1c(Br)c(Br)c(C)[s+]1[O-] , what is its reported GI50?
### Response 19 µM (inactive)

### Prompt Fill blank: measured GI50 of the compound C[C@H]1[C@H](C)CC[C@]2(C)CC[C@]3(C)C(=C[C@@H](O)[C@@H]4[C@@]5(C)[C@H](O)[C@@H](O)[C@H](O)C(C)(C)[C@@H]5CC[C@]43C)[C@H]12 is ____.
### Response > 100 µM (inactive)

Data provenance is ChEMBL document CHEMBL1201862.
